# ASSAYED_SYSTEM: T1, DGI-2 polypeptide (UniProt Q15004 1-111, limits assumed)
# T1 construct: Soluble recombinant protein coated at 500 ng/well; vector tag of pIVEX2.3-MCS not described for this construct; also called KIAA0101
# T1 sequence (looked up): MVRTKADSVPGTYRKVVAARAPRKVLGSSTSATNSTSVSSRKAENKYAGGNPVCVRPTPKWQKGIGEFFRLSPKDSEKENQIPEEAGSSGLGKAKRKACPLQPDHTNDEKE
# PROTOCOL_TEXT: phage ELISA
Assign criterion met to entries whose DGI-2 (OD) meets or exceeds 3 OD; assign criterion not met to the rest.

Would you please look over these solved cases?
BINDER: RDTTSQWSWISRGWEFPGWRAAAGAPVPYPDPLEPRP [DGI-2-20R-3-C2]
GROUP: criterion met

BINDER: VQSGRDLGGLLRGGTGTEASPAAAGAPVPYPDPLEPRP [DGI-2-20F-PP-D3]
GROUP: criterion not met

BINDER: MGVVLECEGGWSIPGQTCYFAAAGAPVPYPDPLEPRP [DGI-2-20R-3-C7]
GROUP: criterion met

Could you verify whether the entry QMSRVAFSPGESWRRWVEGVAAAGAPVPYPDPLEPRP [DGI-2-20R-3-A2] shows DGI-2 (OD) of no less than 3 OD? criterion met

State whether the measured DGI-2 (OD) reaches 3 OD, counting equality as reaching it, for VRAVYSRDAYNEVGRWMRVGIAAAGAPVPYPDPLEPRP [DGI-2-20F-PP-D9] criterion not met

Reported DGI-2 (OD) at or above 3 OD? FGRDGDGIQRRQGGFSWVGDRAAAGAPVPYPDPLEPRP [DGI-2-20F-PP-E2] criterion not met
